# target.or.system: Lp-PLA2 (Homo sapiens, UniProt Q13093)
# Construct: aliquoted and thawed 40 μL of pooled human plasma was previously added; from tissue; host or cells: pooled human plasma
# Sequence (Q13093 22-441): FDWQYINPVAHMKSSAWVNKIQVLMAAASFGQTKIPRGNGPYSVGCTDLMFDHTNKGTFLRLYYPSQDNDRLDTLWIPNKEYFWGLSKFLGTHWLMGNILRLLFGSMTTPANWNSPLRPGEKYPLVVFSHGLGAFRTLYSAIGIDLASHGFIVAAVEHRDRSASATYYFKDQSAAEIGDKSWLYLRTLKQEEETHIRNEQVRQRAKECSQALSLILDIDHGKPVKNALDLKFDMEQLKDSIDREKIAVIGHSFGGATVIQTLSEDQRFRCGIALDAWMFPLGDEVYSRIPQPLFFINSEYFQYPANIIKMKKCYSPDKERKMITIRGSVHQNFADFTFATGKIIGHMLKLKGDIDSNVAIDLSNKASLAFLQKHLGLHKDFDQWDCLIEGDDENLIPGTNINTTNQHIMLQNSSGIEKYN
# assay.explanation: Lipoprotein-associated phospholipase A2 (Lp-PLA2) human plasma assay (Thio-PAF assay)
# Assay type: biochemical
# reported.conditions: Lp-PLA2 human plasma assay (Thio-PAF), pooled human plasma, 30-min pre-incubation at room temperature
pIC50: −log10 of the molar value.
experimental.endpoint: pIC50

molecule: CC12COCCN1c1cc(OCc3cc(F)c(Oc4ccc(C(F)(F)F)nc4)c(F)c3)nc(=O)n1C2 (stereo not drawn) [Example 81]
experimental.endpoint: pIC50
endpoint.value: 8.29
//
molecule: O=c1nc(OCc2cc(F)c(Oc3ccnc(C(F)(F)F)c3)c(F)c2)cc2n1CC13CCC(COC1)N23 (stereo not drawn) [Example 112]
experimental.endpoint: pIC50
endpoint.value: 8.29
//
molecule: O=c1nc(OCc2cc(F)c(Oc3ccc(Cl)c(C(F)(F)F)c3)c(F)c2)cc2n1C[C@@]13CO[C@@H](CN21)C3 [Example 27]
experimental.endpoint: pIC50
endpoint.value: 8.60
//
molecule: O=C(NCc1ccccc1)C12CN3c4cc(OCc5ccc(Oc6ccnc(C(F)(F)F)c6)c(F)c5)nc(=O)n4CC3(C1)C2 [Example 199]
experimental.endpoint: pIC50
endpoint.value: 8.10
//
molecule: O=c1nc(OCc2ccc(Oc3cccc(C(F)(F)F)c3)c(F)c2)cc2n1CC13CC(CN21)C3 [Example 124]
experimental.endpoint: pIC50
endpoint.value: 8.21
//
molecule: O=c1nc(OCc2ccc(Oc3ccnc(C(F)(F)F)c3)c(F)c2)cc2n1CC13CCC(COC1)N23 (stereo not drawn) [Example 152]
experimental.endpoint: pIC50
endpoint.value: 8.41
//
molecule: O=c1nc(OCc2ccc(Oc3ccnc(C(F)(F)F)c3)c(F)c2)cc2n1C[C@@]13C[C@@H](CN21)N(CC(F)(F)F)C3 [Example 173]
experimental.endpoint: pIC50
endpoint.value: 8.47
//
molecule: O=c1nc(OCc2cc(F)c(Oc3cnc(C(F)(F)F)nc3)c(F)c2)cc2n1CC13CCC(CC1)N23 [Example 47]
experimental.endpoint: pIC50
endpoint.value: 8.03
//
molecule: O=c1nc(OCc2cc(F)c(Oc3cncc(C(F)(F)F)c3)c(F)c2)cc2n1CC13CC(CN21)C3 [Example 40]
experimental.endpoint: pIC50
endpoint.value: 8.19
//
molecule: CC12CCCCN1c1cc(OCc3ccc(Oc4cccc(C(F)(F)F)c4)c(C#N)c3)nc(=O)n1C2 (stereo not drawn) [Example 71]
experimental.endpoint: pIC50
endpoint.value: 8.10
//
molecule: O=c1nc(OCc2cc(F)c(Oc3ccccc3)c(F)c2)cc2n1C[C@]13CO[C@H](CN21)C3 [Example 135]
experimental.endpoint: pIC50
endpoint.value: 7.76
//
molecule: NC12CN3c4cc(OCc5ccc(Oc6ccnc(C(F)(F)F)c6)c(F)c5)nc(=O)n4CC3(C1)C2 [Example 202]
experimental.endpoint: pIC50
endpoint.value: 8.72
//
molecule: O=c1nc(OCc2ccc(Oc3ccc(F)c(C(F)(F)F)c3)nc2)cc2n1C[C@]13CO[C@H](CN21)C3 [Example 17]
experimental.endpoint: pIC50
endpoint.value: 7.49
//
molecule: O=c1nc(OCc2ccc(Oc3cnc(C(F)(F)F)nc3)c(F)c2)cc2n1CC13CCC(CC1)N23 [Example 128]
experimental.endpoint: pIC50
endpoint.value: 8.08
//
molecule: O=c1nc(OCc2ccc(Oc3ccnc(OC(F)(F)F)c3)c(F)c2)cc2n1CC13CCC(CC1)N23 [Example 154]
experimental.endpoint: pIC50
endpoint.value: 8.44
